details: 20.0 µM
Listing of entries alongside the reported relative solubility at 20 uM.
Write the value as a bare number.

Cn1nnnc1NC(=O)Cc1csc(C(C)(C)C)n1	0.99
O=C(c1ccccc1)N1CCN(C(=O)c2nn(-c3ccccc3C(F)(F)F)cc2O)CC1	0.99
C=CC(=O)N(c1ccc(C(C)(C)C)cc1)C(C(=O)NC1CCC1)c1cccnc1 (configuration not stated)	1
COc1ccc2c(c1)C(C(=O)Nc1cnccc1-n1cccn1)CCC2 (configuration not stated)	0.99
C=CC(=O)N(c1ccc(C(C)(C)C)cc1)C(C(=O)Nc1c(C)cccc1CC)c1cccnc1 (configuration not stated)	0.98
C=CC(=O)N(C(C(=O)NC(C)(C)C)c1cccnc1)C1CC12CC(C)(C)C2 (configuration not stated)	1

I'd like to know its relative solubility at 20 uM. The compound in question is Cc1ccncc1NC(=O)Cc1cc(Cl)cc(OC2CC(=O)N2)c1 (configuration not stated)
0.99

I'd like to know its relative solubility at 20 uM. The compound in question is Cn1cnnc1NC(=O)Cc1cccc(Cl)c1F
0.98

I'd like to know its relative solubility at 20 uM. The compound in question is COc1ccc(S(=O)(=O)N2CCN(C(=O)c3cc(=O)[nH]c4cc(F)ccc34)CC2)cc1
0.87

I'd like to know its relative solubility at 20 uM. The compound in question is CC1(C)Cc2cccc(OCCNC(=O)c3cc(=O)[nH]c4cc(F)ccc34)c2O1
0.97

I'd like to know its relative solubility at 20 uM. The compound in question is Cc1ccncc1NC(=O)[C@@H]1CNC(=O)O1 (stereo in doubt)
1

I'd like to know its relative solubility at 20 uM. The compound in question is Cc1ccncc1NC(=O)C1C2CCOCC21 (configuration not stated)
1

* * *

molecular target: SARS-CoV-2 Main Protease (SARS-CoV-2); details: 50.0 µM
Classify as follows. Reported inhibition greater than or equal to 0.5%: y. Reported inhibition below: n.

C=CC(=O)N1CCC(N(Cc2ccccc2C#N)C2CCC(O)CC2)CC1 (stereo unspecified)	n
O=C(c1ccccc1)N1CCN(C(=O)c2nn(-c3ccccc3C(F)(F)F)cc2O)CC1	n
Cc1cc(C(=O)CCl)c(C)n1CC1COc2ccccc2O1 (stereo unspecified)	y
CN(C(=O)Cn1nnc2ccccc21)c1ccc(Oc2ccc(C(F)(F)F)cn2)cc1	y
CC(C(=O)Nc1cnccc1O)c1ccccc1 (stereo unspecified)	n

// inclusive: inhibition at least 0.5%? input: C=CC(=O)N1CCCC(c2nc3ccccc3s2)C1 (stereo unspecified)
n

// inclusive: inhibition at least 0.5%? input: CCC(=O)Nc1ccc(N(Cc2ccsc2)C(=O)Cn2nnc3ccccc32)cc1
y

// inclusive: inhibition at least 0.5%? input: Nc1ncncc1CNC(=O)Nc1ccccc1OCCn1ccnc1
y

// inclusive: inhibition at least 0.5%? input: Cc1nnc(CC(=O)Nc2cccnc2)s1
n

// inclusive: inhibition at least 0.5%? input: O=C(NCCNc1cccnn1)c1ccccc1NS(=O)(=O)c1cc(F)ccc1F
y

* * *

biological target: SARS-CoV-2 Main Protease (SARS-CoV-2); settings: 50.0 µM
Classify as follows. Reported inhibition greater than or equal to 10%: Satisfied. Reported inhibition below: Not satisfied.

C=CC(=O)N(c1ccc(C(C)(C)CC)cc1)C(C(=O)Nc1ccccc1Br)c1cccnc1 (stereo not given)	Not satisfied
Cc1ccncc1NC(=O)Cc1cc(Cl)c2c(c1)OCCO2	Satisfied
C=CC(=O)N(c1ccc(C(C)(C)C)cc1)C(C(=O)NCc1cccnc1)c1cccnc1 (stereo not given)	Satisfied
NS(=O)(=O)c1ccc(N2CCSCC2)cc1	Not satisfied
CCc1cccc(CC)c1NC(=O)CN1C(=O)C(=O)c2cc(OC)ccc21	Not satisfied

// inclusive: inhibition at least 10%? input: O=C(CCl)N1CCN(C(c2ccccc2)C2CCOCC2)CC1 (stereo not given)
Satisfied

// inclusive: inhibition at least 10%? input: C=CC(=O)N(c1ccc(N2CCC2)cc1)C(C(=O)NC(C)(C)C)c1cccnc1 (stereo not given)
Not satisfied

// inclusive: inhibition at least 10%? input: Cc1ccc(C)c(N(C)C(=O)Cc2cnn(C)c2C)c1
Satisfied

// inclusive: inhibition at least 10%? input: CC1(C)Cc2cccc(OCCNC(=O)c3cc(=O)[nH]c4ccc(Cl)cc34)c2O1
Satisfied

// inclusive: inhibition at least 10%? input: Cn1cnnc1NC(=O)Cc1cccc(Cl)c1
Not satisfied

// inclusive: inhibition at least 10%? input: N#Cc1cccc(NC(=O)Cc2c[nH]c3ncccc23)c1
Not satisfied

// inclusive: inhibition at least 10%? input: CS(=O)(=O)N1CCc2ccc(CN3CCN(C(=O)CCl)CC3)cc2C1
Satisfied

// inclusive: inhibition at least 10%? input: Cc1cc(Cl)cc(NC(=O)Nc2cccnc2)c1
Satisfied

// inclusive: inhibition at least 10%? input: COc1cccc(C(=O)Nc2n[nH]c(SCc3ccc(Cl)cc3)n2)c1
Satisfied
